Test system: DU-145 prostate
Experiment: NCI tumour cell line growth inhibition, 48 h
property_name: TGI

Reference set (2 entries):
Query block: I would be grateful if you could share the reported TGI for "N#Cc1c(-c2ccccc2)[nH]c2ccc(Cl)cc2c1=O" .
Result block: > 100 µM

Query block: // returns reported TGI for input "Nc1nc(-[n+]2ccc(-c3ccncc3)cc2)nc(Cl)c1Cl"
Result block: > 100 µM

Attention now turns to another entry.
Query block: Entry "O=S(=O)(c1ccc(NC(=S)NC23CC4CC(CC(C4)C2)C3)cc1)N1CCCCC1" : reported TGI = ?
Result block: > 100 µM

---

Test system: EKVX NSCLC
Assay: NCI tumour cell line growth inhibition, 48 h
property_name: TGI (µM)
Give bare numbers, in µM.

Reference set, count: 2
Query block: TGI for "C=C1C(=O)O[C@H]2[C@H]1CC/C(COC(=O)NCCCCNC(=O)OC/C1=C/CC[C@@]3(C)O[C@H]3[C@H]3OC(=O)C(=C)[C@@H]3CC1)=C\CC[C@@]1(C)O[C@@H]21" ?
Result block: 13.5

Query block: Given the entry "COc1ccccc1CNCCCN1C(=O)c2ccc3c4c(ccc(c24)C1=O)C(=O)N(CCCNCCNCCCN)C3=O" , report its measured TGI.
Result block: 16.3

Parameter requested: TGI. Apply to each item below.
1. CCOC(=O)c1c(N2CCOCC2)[nH]c(=O)c(C(c2c(Cl)cccc2Cl)c2c(O)c(C(=O)OCC)c(N3CCOCC3)[nH]c2=O)c1O
2. Nc1nc(Nc2cccnc2)sc1C(=O)c1ccccc1F
3. COc1cc(/C=C/c2ccc(OC)c(O)c2)cc(OC)c1
4. COC(=O)[C@@]12C(=O)C=CC(=O)C1C1C(=CC2C)OC2OC3(CCCCC3)OC21 (some centres undefined)

Result block:
1. 32.9
2. 13.9
3. 90
4. 37.8

---

Tested on: HOP-62 NSCLC
Assay: NCI tumour cell line growth inhibition, 48 h
property_name: GI50

Query block: Give the measured GI50 of "COc1ccc(/C=C/c2c(C(=O)/C=C/c3ccccc3)c(C)nc3ccccc23)cc1" .
Result block: 1.89 µM

Query block: // query GI50 value for entry "COc1ccccc1CNCCCN1C(=O)c2ccc3c4c(ccc(c24)C1=O)C(=O)N(CCCNCCNCCCN)C3=O"
Result block: 2.46 µM

Query block: Looking for the measured GI50 of "O=S(=O)(c1ccc(NC(=S)NC23CC4CC(CC(C4)C2)C3)cc1)N1CCCCC1" , can you help?
Result block: 3.67 µM

Query block: Entry under review: "Cc1cc(C)c(NC(=O)c2sc3nc4c(cc3c2N)C(=O)CCC4)c(C)c1" . Reported GI50?
Result block: 4.56 µM

Query block: I would be grateful if you could share the reported GI50 for "Nc1nc(Nc2cccnc2)sc1C(=O)c1ccccc1F" .
Result block: 6.67 µM

State the recorded GI50 for every item in the following list.
1. c1ccc(Sc2ccc(Cc3nc4cc5ccccc5cc4[nH]3)cc2)cc1
2. COc1ccc2[nH]c3c4[nH]c5ccc(OC)cc5c4c4c(c3c2c1)C(=O)NC4=O

Result block:
["8.71 µM", "> 25 µM"]

---

System: ACHN renal
Assay: NCI tumour cell line growth inhibition, 48 h
Give measured TGI for each item. Keep answers brief.

Field: TGI. Fill in for each record below.
1. CN(C)CC1CCCC(CN(C)C)C1OC(=O)c1ccccc1 (stereo not drawn)
2. CNC(=S)/N=C(\N)N(C)C
3. CC1CCCCNC1=S (stereo not drawn)
4. CC(C)=C[C@H]1CCC2(OCCO2)[C@]1(C)COCc1ccccc1
5. CCCN(CCC)C(=O)c1c([N+](=O)[O-])cc(C(F)(F)F)cc1[N+](=O)[O-]
6. COc1cc(-c2nc3ccccn3c2/N=C/c2cc(Br)cc(Br)c2O)ccc1O
7. CCOC(=O)Cn1c(=O)ccn(COCCO)c1=O
8. O=C(NCP(=O)(c1ccccc1)c1ccccc1)OCc1ccccc1

Result block:
> 100 µM
> 100 µM
> 10 µM
> 100 µM
> 100 µM
> 100 µM
> 100 µM
> 100 µM

Here are 4 compounds. What values of TGI were reported for them?
1. Cc1cc(N(CCC#N)CCC#N)ccc1/C=C(\NC(=O)/C=C/c1ccccc1)C(N)=O
2. Cc1ccc2c3c1O[C@H]1c4[nH]c5ccccc5c4C[C@@]4(O)[C@@H](C2)N(CC2CC2)CC[C@]314
3. C[Si](C)(C)OC1CC(=O)OC1n1cc(F)c(=O)[nH]c1=O (stereo not drawn)
4. S=c1ssc(N2CCOCC2)c1Cl

Result block:
["> 100 µM", "30.9 µM", "> 100 µM", "> 100 µM"]

For each of the compounds below, note its TGI.
1. O=C(N/N=C/c1cc(Br)ccc1O)N/N=C/c1cc(Br)ccc1O
2. N#Cc1cc(-c2cc3ccccc3o2)oc1N
3. O=C1c2cccnc2-c2nc(-c3ccc(Cl)cc3)cc3c2c1nc1ccccc13

Result block:
["> 100 µM", "11.1 µM", "33.7 µM"]
